Origin of the recorded values: the MegaScale stability set (Tsuboyama et al. 2023)

Below: a set of entries, each annotated with reported folding stability dG.
B1: EEHEE_rd4_0003 (parent)
chain: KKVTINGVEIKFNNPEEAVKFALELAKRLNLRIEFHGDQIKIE

Variants of: B1
Test Name: folding stability dG (cDNA display proteolysis); higher = more stable
Experimental Context: PBS, room temperature
Your answer should be a plain number; it is taken to be in kcal/mol.

Example variants with recorded folding stability dG:
>>> result_number("A18H")
1.7
>>> result_number("L23A")
1.91
>>> result_number("K41T")
2.69
>>> result_number("L23G")
1.43
>>> result_number("K1T")
3.14

Qu. Requested read-out: folding stability dG. Entry: A18G
Ans. 2.01

Qu. Ok, now R28L
Ans. 2.57

Qu. Next: A22I
Ans. 3.21

Qu. Please answer likewise for E9G
Ans. 2.12

Qu. Note, next up: K2R
Ans. 2.78
